- test summary: log P by HPLC on reversed-phase columns (C 18), EEC directive 79/831 Annex V.A8
- Assay type: physicochemical
- applied conditions: reversed-phase C18 HPLC column, pH 2.7, acidic range, pH 2.7, 0.1% aqueous formic acid / acetonitrile; read-out: log P[a]
This listing pairs molecules with measured chromatographic logP.

[
  {
    "compound string": "Cc1ccc(Br)cc1S(=O)(=O)Cl",
    "chromatographic logP": 3.73
  },
  {
    "compound string": "O=C(Nc1cc(SCC(F)(F)F)c(Cl)cc1F)C(F)(F)F",
    "chromatographic logP": 3.34
  },
  {
    "compound string": "Nc1cc(SSc2ccc(F)c(N)c2)ccc1F",
    "chromatographic logP": 2.98
  },
  {
    "compound string": "Cc1cc(F)c(-n2nnc3c(cnn3C)c2=O)cc1SCC(F)(F)F",
    "chromatographic logP": 3.16
  }
]

----------
- test summary: log P by HPLC on reversed-phase columns (C 18), EEC directive 79/831 Annex V.A8
- Type: physicochemical
- applied conditions: method [a]
Parameter: logP[a]. Scope: all listed entries.

[
  {
    "compound": "O=c1c2sccc2ncn1-c1ccc(C(F)(F)F)c(SCC(F)(F)F)c1",
    "logP[a]": 3.09
  },
  {
    "compound": "Cc1cc(C)c(-n2cnc3c(cnn3C)c2=O)cc1SCC(F)(F)F",
    "logP[a]": 2.79
  },
  {
    "compound": "Cc1nn(C)c2ncn(-c3ccc(Cl)c([S+]([O-])CC(F)(F)F)c3)c(=O)c12 (centres unmarked)",
    "logP[a]": 2.01
  },
  {
    "compound": "Cc1nn(C)c2ncn(-c3ccc(C#N)c(SCC(F)(F)F)c3)c(=O)c12",
    "logP[a]": 2.30
  },
  {
    "compound": "Cn1ncc2c(=O)n(-c3ccc(C#N)c([S+]([O-])CC(F)(F)F)c3)cnc21 (racemic)",
    "logP[a]": 1.51
  },
  {
    "compound": "Cc1c2c(=O)n(-c3ccc(C(F)(F)F)c(SCC(F)(F)F)c3)cnc2nn1C",
    "logP[a]": 2.70
  },
  {
    "compound": "Cc1cc(F)c(-n2cnc3sccc3c2=O)cc1SCC(F)(F)F",
    "logP[a]": 3.22
  },
  {
    "compound": "Cc1ccc(-n2cnc3c(c(C)nn3C)c2=O)cc1SCC(F)(F)F",
    "logP[a]": 2.81
  }
]

----------
- test summary: log P by HPLC on reversed-phase columns (C 18), EEC directive 79/831 Annex V.A8
- Type: physicochemical
- applied conditions: reversed-phase C18 HPLC column, pH 2.7, acidic range, pH 2.7, 0.1% aqueous formic acid / acetonitrile; read-out: log P[a]
Flag rule - chromatographic logP less than 4 flags Met; the remaining entries get Not met.

[
  {
    "compound string": "Cc1ccc(I)cc1SCC(F)(F)F",
    "classification": "Not met"
  },
  {
    "compound string": "Nc1cc(SCC(F)(F)F)c(Cl)cc1F",
    "classification": "Met"
  },
  {
    "compound string": "Cc1cc(F)c(-n2c(C(F)(F)F)nc3c(cnn3C)c2=O)cc1SCC(F)(F)F",
    "classification": "Met"
  },
  {
    "compound string": "Nc1ccc(Cl)c(S)c1",
    "classification": "Met"
  },
  {
    "compound string": "Cc1cc(F)c(N)cc1S",
    "classification": "Met"
  },
  {
    "compound string": "COc1ccc(Br)cc1SCC(F)(F)F",
    "classification": "Met"
  }
]

----------
- test summary: log P by HPLC on reversed-phase columns (C 18), EEC directive 79/831 Annex V.A8
- Type: physicochemical
- applied conditions: method [a]
Overview of recorded logP[a] for various compounds
reported property: logP[a]

[
  {
    "compound": "Cc1cc(C)c([S+]([O-])CC(F)(F)F)cc1-n1cnc2sccc2c1=O (centres unmarked)",
    "test result": 2.15
  },
  {
    "compound": "O=c1c2scnc2ncn1-c1cc([S+]([O-])CC(F)(F)F)c(Cl)cc1Cl (centres unmarked)",
    "test result": 2.01
  },
  {
    "compound": "Cc1ccc(-n2cnc3nn(C)c(C)c3c2=O)cc1[S+]([O-])CC(F)(F)F (centres unmarked)",
    "test result": 1.54
  },
  {
    "compound": "N#Cc1ccc(-n2cnc3ccsc3c2=O)cc1SCC(F)(F)F",
    "test result": 2.37
  },
  {
    "compound": "CCn1cnc2c(=O)n(-c3cc(SCC(F)(F)F)c(C)cc3F)cnc21",
    "test result": 2.46
  },
  {
    "compound": "Cc1nc2c(=O)n(-c3cc([S+]([O-])CC(F)(F)F)c(Cl)cc3Cl)cnc2s1 (centres unmarked)",
    "test result": 2.22
  },
  {
    "compound": "Cn1ncc2c(=O)n(-c3cc(SCC(F)(F)F)c(Cl)cc3Cl)cnc21",
    "test result": 2.94
  },
  {
    "compound": "Cc1cc(C)c(-n2c(C)nc3c(cnn3C)c2=O)cc1SCC(F)(F)F",
    "test result": 2.92
  },
  {
    "compound": "Cc1nc2c(=O)n(-c3cc([S+]([O-])CC(F)(F)F)c(C)cc3F)cnc2s1 (centres unmarked)",
    "test result": 1.80
  },
  {
    "compound": "N#Cc1cc(F)c(-n2cnc3sccc3c2=O)cc1SCC(F)(F)F",
    "test result": 2.70
  },
  {
    "compound": "Cc1cc(C)c([S+]([O-])CC(F)(F)F)cc1-n1cnc2scnc2c1=O (centres unmarked)",
    "test result": 1.6
  }
]

----------
- test summary: log P by HPLC on reversed-phase columns (C 18), EEC directive 79/831 Annex V.A8
- Format: physicochemical
- applied conditions: method [b]

[
  {
    "compound": "O=c1c2ccsc2ncn1-c1ccc(Cl)c(SCC(F)(F)F)c1",
    "logP[b]": 3.03
  },
  {
    "compound": "N#Cc1ccc(-n2cnc3sccc3c2=O)cc1[S+]([O-])CC(F)(F)F (stereo not drawn) [Compound 88]",
    "logP[b]": 2.00
  },
  {
    "compound": "Cn1ncc2c(=O)n(-c3cc(SCC(F)(F)F)c(Cl)cc3Cl)cnc21",
    "logP[b]": 2.94
  }
]

----------
- test summary: log P by HPLC on reversed-phase columns (C 18), EEC directive 79/831 Annex V.A8
- Type: physicochemical
- applied conditions: reversed-phase C18 HPLC column, pH 7.8, method [b]; read-out: logP[b]
reported property: chromatographic logP

[
  {
    "compound": "Cc1cc(F)c(-n2nnc3c(cnn3C)c2=O)cc1SCC(F)(F)F [Compound 119]",
    "test result": 3.13
  },
  {
    "compound": "Cc1ccc(-n2cnc3sccc3c2=O)cc1SCC(F)(F)F [Compound 83]",
    "test result": 3.01
  },
  {
    "compound": "Cc1cc(F)c(-n2cnc3c(cnn3C)c2=O)cc1[S+]([O-])CC(F)(F)F (stereo not drawn) [Compound 2]",
    "test result": 1.69
  },
  {
    "compound": "Cc1cc(F)c(-n2c(C(F)(F)F)nc3c(cnn3C)c2=O)cc1[S+]([O-])CC(F)(F)F (stereo not drawn) [Compound 16]",
    "test result": 2.63
  },
  {
    "compound": "Cc1cc(F)c(-n2nnc3c(cnn3C)c2=O)cc1[S+]([O-])CC(F)(F)F (stereo not drawn) [Compound 120]",
    "test result": 2.1
  },
  {
    "compound": "Cc1cc(F)c(-n2c(C)nc3c(cnn3C)c2=O)cc1[S+]([O-])CC(F)(F)F (stereo not drawn) [Compound 15]",
    "test result": 1.84
  }
]

----------
- test summary: log P by HPLC on reversed-phase columns (C 18), EEC directive 79/831 Annex V.A8
- Format: physicochemical
- applied conditions: method [a]
reported property: logP[a]

[
  {
    "compound": "O=c1c2ccsc2ncn1-c1ccc(Cl)c(SCC(F)(F)F)c1 [Compound 85]",
    "reported property": "logP[a]",
    "test result": 3.09
  },
  {
    "compound": "Cc1cc(F)c(-n2cnc3c(cnn3CC(F)(F)F)c2=O)cc1SCC(F)(F)F [Compound 17]",
    "reported property": "logP[a]",
    "test result": 3.31
  },
  {
    "compound": "Cc1nn(C)c2ncn(-c3ccc(Cl)c(SCC(F)(F)F)c3)c(=O)c12 [Compound 36]",
    "reported property": "logP[a]",
    "test result": 2.82
  },
  {
    "compound": "O=c1c2ncsc2ncn1-c1cc([S+]([O-])CC(F)(F)F)c(Cl)cc1Cl (stereo not drawn) [Compound 67]",
    "reported property": "logP[a]",
    "test result": 1.96
  },
  {
    "compound": "Cc1cc(F)c(-n2c(C)nc3c(cnn3CC(F)(F)F)c2=O)cc1SCC(F)(F)F [Compound 20]",
    "reported property": "logP[a]",
    "test result": 3.50
  },
  {
    "compound": "Cc1cc(F)c(-n2c(C(F)(F)F)nc3nn(C)cc3c2=O)cc1SCC(F)(F)F [Compound 42]",
    "reported property": "logP[a]",
    "test result": 3.27
  },
  {
    "compound": "Cc1c2c(=O)n(-c3ccc(Cl)c(SCC(F)(F)F)c3)cnc2nn1C [Compound 48]",
    "reported property": "logP[a]",
    "test result": 2.45
  },
  {
    "compound": "Cc1ccc(-n2cnc3c(cnn3C)c2=O)cc1[S+]([O-])CC(F)(F)F (racemic) [Compound 27]",
    "reported property": "logP[a]",
    "test result": 1.57
  },
  {
    "compound": "Cc1cc(C)c([S+]([O-])CC(F)(F)F)cc1-n1cnc2c(ncn2C)c1=O (racemic) [Compound 58]",
    "reported property": "logP[a]",
    "test result": 1.43
  }
]
